# measured.on: UniProt:Q07889
# Sequence (Q07889 whole entry): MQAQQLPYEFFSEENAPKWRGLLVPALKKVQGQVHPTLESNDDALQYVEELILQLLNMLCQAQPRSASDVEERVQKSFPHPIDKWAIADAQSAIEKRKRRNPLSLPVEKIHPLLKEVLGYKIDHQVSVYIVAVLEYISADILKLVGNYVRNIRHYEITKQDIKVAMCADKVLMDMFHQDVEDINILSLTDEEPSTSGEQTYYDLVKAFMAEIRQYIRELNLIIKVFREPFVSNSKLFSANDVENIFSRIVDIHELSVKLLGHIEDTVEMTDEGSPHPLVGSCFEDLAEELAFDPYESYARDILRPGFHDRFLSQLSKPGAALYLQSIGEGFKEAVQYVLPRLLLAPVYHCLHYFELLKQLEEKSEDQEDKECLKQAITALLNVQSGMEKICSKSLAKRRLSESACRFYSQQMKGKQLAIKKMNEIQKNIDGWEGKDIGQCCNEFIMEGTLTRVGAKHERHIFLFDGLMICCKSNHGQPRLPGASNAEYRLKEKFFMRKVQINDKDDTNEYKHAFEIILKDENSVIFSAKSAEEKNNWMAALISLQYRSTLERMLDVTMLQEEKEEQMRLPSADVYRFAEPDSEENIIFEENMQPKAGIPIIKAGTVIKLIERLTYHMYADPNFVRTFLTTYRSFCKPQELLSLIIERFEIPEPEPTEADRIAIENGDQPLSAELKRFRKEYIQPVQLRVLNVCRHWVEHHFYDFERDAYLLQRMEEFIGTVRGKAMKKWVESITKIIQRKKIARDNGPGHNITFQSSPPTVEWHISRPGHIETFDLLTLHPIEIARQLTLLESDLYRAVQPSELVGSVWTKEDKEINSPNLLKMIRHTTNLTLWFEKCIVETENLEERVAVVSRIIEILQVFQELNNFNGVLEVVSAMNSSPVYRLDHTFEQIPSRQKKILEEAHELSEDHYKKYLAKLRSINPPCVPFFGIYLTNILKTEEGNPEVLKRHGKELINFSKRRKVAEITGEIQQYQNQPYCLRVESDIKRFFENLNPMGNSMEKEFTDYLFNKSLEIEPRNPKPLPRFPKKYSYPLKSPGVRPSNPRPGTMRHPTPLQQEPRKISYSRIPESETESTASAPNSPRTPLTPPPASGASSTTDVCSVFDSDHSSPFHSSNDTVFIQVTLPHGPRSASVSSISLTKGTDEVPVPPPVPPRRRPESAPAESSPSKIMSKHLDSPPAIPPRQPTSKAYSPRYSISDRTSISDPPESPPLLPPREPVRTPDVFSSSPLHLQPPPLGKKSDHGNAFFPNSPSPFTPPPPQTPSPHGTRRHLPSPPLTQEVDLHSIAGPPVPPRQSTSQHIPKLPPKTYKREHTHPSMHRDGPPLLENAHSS
# experimental.protocol: Binding affinity to human recombinant N-terminal His6-tagged SOS1 (564 to 1049 residues) expressed in BL21-RIL Escherichia coli assessed as SOS1-RAS complex formation by measuring exchange of GTP to BODIPY-GDP measured every 3 secs for 30 mins
pEC50: −log10 of the molar value.
experimental.endpoint: pEC50

// sample `N[C@@H](Cc1c[nH]c2ccccc12)C(=O)NC1CCN(Cc2c[nH]c3ccc(Cl)cc23)CC1` , its pEC50 was 4.85 to 5.02

New cases:
// sample `Cc1ccc2[nH]cc(CN3CCC(NC(=O)[C@@H](N)Cc4c[nH]c5ccccc45)CC3)c2c1` , its pEC50 was 4.53 to 4.60

// sample `N[C@@H](Cc1c[nH]c2ccccc12)C(=O)NC1CCN(Cc2c[nH]c3ccccc23)CC1` , its pEC50 was 4.00 to 4.05

Reference source: ChEMBL document CHEMBL4130625
